Target: LC3B R11A (for ITC) (human, UniProt Q9GZQ8 1-120, R11A)
Assay: ITC; 25 °C, VP-ITC; peptides 0.31 mM titrated into 0.018 mM LC3B proteins in 25 steps; 40 mM Na2HPO4, 80 mM NaCl, pH 7.0; one-site binding model
Details: both partners purified
EXPERIMENTAL_ENDPOINT: Kd (µM)
# value in µM; strip the unit string

Prompt: Report Kd for RPEEQMESDNCSGGDDDWTHLS [p62 LIR peptide] please.
Response: 4.29
